# ASSAY_DETAILS: cell-permeable autofluorescent compounds in GFP channel, dose response, artefact control, imaging, high-content imaging (AID 2124);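 note: cells exposed to compound for 48 hours before fixing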
# CONDITIONS_USED: cells, GFP-channel autofluorescence, high-content imaging; cell count; at 10 µM
Inconclusive results are not listed.
VALUE_KIND: cell count
Phrase the answer as number then unit, nothing more needed.

Below are 2 molecules. Give each one its cell count.
1. Cc1ccc(/C(C#N)=C\c2ccc(N3CCOCC3)o2)cc1
2. Oc1c(/C=C/C=C/C=Nc2ccccc2)sc(=S)n1Cc1ccccc1

*A*
1110 cells
2740 cells

* * *

Kindly state cell count for each of the entries shown.
# ASSAY_DETAILS: cell-permeable autofluorescent compounds in GFP channel, dose response, artefact control, imaging, high-content imaging (AID 2124);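 note: cells exposed to compound for 48 hours before fixing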
# CONDITIONS_USED: cells, GFP-channel autofluorescence, high-content imaging; cell count; at 10 µM
Records with an inconclusive call do not appear.
Answers are plain numbers, in cells.

>>> assay_result("COc1cc(OC)c(-c2c3cc(O)c(=O)cc-3oc3cc(O)c(O)cc23)cc1OC")
3000
>>> assay_result("COc1cc2c3nnc(-c4ccc(F)cc4)c-3cn(Cc3ccccc3)c2cc1OC")
338
>>> assay_result("O=C(C1=NN(c2ccccc2)C2C(=O)N(c3cccc(Cl)c3)C(=O)C12)c1ccccc1 (stereo not given)")
3140
>>> assay_result("Cc1cc(C2C(C#N)=C(N)Oc3n[nH]c(C)c32)c(C)s1 (stereo not given)")
3010

Now for another entry.
cell count measured on N#C/C(=C/c1ccc(N2CCCCCC2)o1)c1ccc(Cl)cc1 = 277
